src = patent US20110059504A1

Molecular target: T1, human myostatin (human, UniProt O14793 267-375, biotinylated in selections and radioactive assays (site not stated))
T1 construct: Phage ELISA used both unbiotinylated and biotinylated myostatin; also called biotinylated human myostatin; myostatin-biotin
T1 sequence (looked up): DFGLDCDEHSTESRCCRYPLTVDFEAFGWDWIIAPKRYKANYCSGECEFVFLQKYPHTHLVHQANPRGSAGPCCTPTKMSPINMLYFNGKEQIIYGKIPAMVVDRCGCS
Test: radioactive equilibrium binding assay

Binder: 39908-H4 (designed binder, group M3-A50; ΔS82, M83R; also called M015 (clone ID)) MTIPEIIIKVRGTQVVGSDMTVIVEFSNPFKETLRNVWVHLDGPGVTRPMKKMFRDIRPKTKVQWEEVVRPWVSGHRKLIARCQLLPWHVYGELDVQIQRRDYKDDDDK
B max (%): 68.6
--
Binder: 39633-A5 (V46I) (designed binder, group M3-A50; ΔS82, M83R, V46I) MTIPEIIIKVRGTQVVGSDMTVIVEFSNPFKETLRNVWVHLDGPGITRPMKKMFCEVRPNSIVQWEEVVRPWVSGHRKLIARCSLSPWHVYGELDVQIQRRDYKDDDDK
B max (%): 78.3
--
Binder: 39633-C5 (designed binder, group M1-A50; V91L; also called M34 (clone ID)) MTIPEIIIKVRGTQVVGSDMTVIVEFTNPFKETLRSVWVHLDGPGVTRPMKKMFRVIPPKTTVQWEEVVRPWVSGHRKLIASMRTQYLIHLYGELDVQIQRRDYKDDDDK
B max (%): 93
--
Binder: 45927-A3 (designed binder, group M1-Aext) MTIPEIIIKVRGTQVVGSDMTVIVEFTNPLKETLRNVWVHLDGPGVTRPMKKMFLKILGCSTVQWEEVVRPWVSGHRKLIASMSMLGLPFSLRFIPVYGELDVQIQRRDYKDDDDK
B max (%): 36.4
